Recorded values, source ChEMBL document CHEMBL4665782.

- procedure text: Expansion-promoting activity against human CD34+ cells assessed as increase in Lin-CD34+CD38-CD45RA-CD49f+CD90- multipotent progenitor cells measured after 4 days by FACS analysis relative to control
- Assay type: functional, CD34-positive (myeloid/lymphoid) cell
measured metric: fold change (FC)
Give the figure only, with no unit attached.

Examples with their reported fold change (FC) follow.
INSERT INTO measurements (compound, measured_metric, numeric_readout) VALUES
  ('C/C(C(=O)CC[C@@H](C)CO[C@@H]1O[C@H](CO)[C@@H](O)[C@H](O)[C@H]1O)=C1/C(=O)C[C@H]2[C@@H]3CC=C4C[C@@H](O[C@@H]5O[C@H](CO)[C@@H](O)[C@H](O)[C@H]5O[C@@H]5O[C@@H](C)[C@H](O)[C@@H](O)[C@H]5O)CC[C@]4(C)[C@H]3CC[C@]12C', 'fold change (FC)', 1),
  ('C[C@H](CCC(=O)[C@@H](C)C1C(=O)C[C@H]2[C@@H]3CC=C4C[C@@H](O[C@@H]5O[C@H](CO)[C@@H](O)[C@H](O)[C@H]5O[C@@H]5O[C@@H](C)[C@H](O)[C@@H](O)[C@H]5O)CC[C@]4(C)[C@H]3CC[C@]12C)CO[C@@H]1O[C@H](CO)[C@@H](O)[C@H](O)[C@H]1O (some centres not stated)', 'fold change (FC)', 1.8),
  ('C[C@H](CC[C@@]1(O)OC2C[C@H]3[C@@H]4C[C@@H](O)[C@@]5(O)C[C@@H](O[C@@H]6O[C@H](CO)[C@@H](O[C@@H]7O[C@@H](C)[C@H](O[C@@H]8O[C@@H](C)[C@H](O)[C@@H](O)[C@H]8O)[C@@H](O)[C@H]7O)[C@H](O)[C@H]6O[C@@H]6O[C@@H](C)[C@H](O)[C@@H](O)[C@H]6O)CC[C@]5(C)[C@H]4CC[C@]3(C)[C@@]2(O)[C@@H]1C)CO[C@@H]1O[C@H](CO)[C@@H](O)[C@H](O)[C@H]1O (some centres not stated)', 'fold change (FC)', 1.8),
  ('CC1=C2[C@](O)(C[C@H]3[C@@H]4C[C@@H](O)[C@@]5(O)C[C@@H](O[C@@H]6O[C@H](CO)[C@@H](O[C@@H]7O[C@@H](C)[C@H](O[C@@H]8O[C@@H](C)[C@H](O)[C@@H](O)[C@H]8O)[C@@H](O)[C@H]7O)[C@H](O)[C@H]6O[C@@H]6O[C@@H](C)[C@H](O)[C@@H](O)[C@H]6O)CC[C@]5(C)[C@H]4CC[C@]23C)C(C[C@@H](C)CO[C@@H]2O[C@H](CO)[C@@H](O)[C@H](O)[C@H]2O)C1=O (some centres not stated)', 'fold change (FC)', 1.3),
  ('C[C@H](CC[C@@]1(O)OC2C[C@H]3[C@@H]4CC=C5C[C@@H](O[C@@H]6O[C@H](CO)[C@@H](O[C@@H]7O[C@H](CO)[C@H](O)[C@@H](O)[C@H]7O)[C@H](O)[C@H]6O[C@@H]6O[C@@H](C)[C@H](O)[C@@H](O)[C@H]6O)CC[C@]5(C)[C@H]4CC[C@]3(C)[C@@]2(O)[C@@H]1C)CO[C@@H]1O[C@H](CO)[C@@H](O)[C@H](O)[C@H]1O (some centres not stated)', 'fold change (FC)', 1.9),
  ('Cc1c(CC[C@@H](C)CO[C@@H]2O[C@H](CO)[C@@H](O)[C@H](O)[C@H]2O)oc2c1[C@@]1(C)CC[C@H]3[C@@H](CC=C4C[C@@H](O[C@@H]5O[C@H](CO)[C@@H](O)[C@H](O)[C@H]5O[C@@H]5O[C@@H](C)[C@H](O)[C@@H](O)[C@H]5O)CC[C@@]43C)[C@@H]1C2', 'fold change (FC)', 0.9);

Notebook: Cc1c(CC[C@@H](C)CO[C@@H]2O[C@H](CO)[C@@H](O)[C@H](O)[C@H]2O)oc2c1[C@@]1(C)CC[C@H]3[C@@H](C[C@@H](O)[C@@]4(O)C[C@@H](O[C@@H]5O[C@H](CO)[C@@H](O[C@@H]6O[C@@H](C)[C@H](O[C@@H]7O[C@@H](C)[C@H](O)[C@@H](O)[C@H]7O)[C@@H](O)[C@H]6O)[C@H](O)[C@H]5O[C@@H]5O[C@@H](C)[C@H](O)[C@@H](O)[C@H]5O)CC[C@]34C)[C@@H]1C2 , fold change (FC) read as 1.6
